Assay: Quantitative High-Throughput drug screen in 47 multiple myeloma cell lines against the NCATS MIPE library collection: KHM11_PLB cell viability assay (AID 1918962); note: nearly all actives have a fitted effect of over 35% in size
Details: KHM11 myeloma cell viability, CellTiter-Glo ATP luminescence, 48 h; series mostly up to 45.8 µM
Results filed as inconclusive are left out. Calls of active or inactive are those of the source. Calls come from the whole dose curve; as a rule, active = well fitted cell-killing curve with a large enough effect; inconclusive = small, poorly fitted or top-dose-only effect, or effect the other way; inactive = no such curve, though single readings can be large or run the other way.
Lab note: assign the record to one of active, inactive

For C#C[C@]1(O)CC[C@@H]2[C@@H]3CCC4=CC(=O)CC[C@@H]4[C@H]3CC[C@@]21CC , which call appears in the assay record?
inactive

CCNC(=O)Nc1ccc(-c2nc3c(c(N4CCOC[C@H]4C)n2)CCN(C2COC2)C3)cc1 , same question.
active

What about this compound? C[C@H]1C[C@H]2[C@@H]3CCC4=CC(=O)C=C[C@]4(C)[C@@H]3C(=O)C[C@]2(C)[C@@]1(O)C(=O)CO
inactive

CCC[C@H]1C[C@H](C(=O)N[C@@H]([C@@H]2O[C@@H](SC)[C@@H](O)[C@@H](O)[C@@H]2O)[C@H](C)Cl)N(C)C1 , same question.
inactive

---

Assay: qHTS of pediatric cancer cell lines to identify multiple opportunities for drug repurposing: Primary screen for BT-12 cells (AID 1347101); note: nearly all actives have a fitted effect of over 25% in size
Conditions: BT-12 viability, CellTiter-Glo luminescence, 48 h; series mostly up to 57.3 µM
Records with an inconclusive call do not appear. Calls of active or inactive are those of the source. The call rests on the fitted dose curve; in most records, active means well fitted cell-killing curve with a large enough effect; inconclusive means small, poorly fitted or top-dose-only effect; inactive means flat fitted curve, though single readings scatter. Non-standard residues stand in square brackets, D forms with d. Residues, ends and D or L forms follow the SMILES beside them. *: point of attachment. Nva = CCC[C@H](N)C(=O)O; Cbz = O=C(OCc1ccccc1)*
Bench note: report the call from yes (1) = active, no (0) = inactive

Short answer needed: outcome of this test for O=C(NNC(=O)c1ccc(CNS(=O)(=O)c2ccc(F)c(Cl)c2)cc1)c1ccccc1 ?
no (0)

Subsequent entry: C#C[C@]1(O)CC[C@@H]2[C@@H]3CCC4=CC(=O)CC[C@@H]4[C@H]3CC[C@@]21CC
no (0)

Check Cn1cc(CNCC2CCN(c3ncc(C(=O)NO)cn3)CC2)c2ccccc21 too.
yes (1)

Quick one: C[C@@H](Oc1ccc2[nH]nc(C=Cc3cnn(CCO)c3)c2c1)c1c(Cl)cncc1Cl
yes (1)

And then OC[C@@H](O)[C@@H](O)[C@H](O)[C@@H](O)CO , what is it?
no (0)

Can you handle CCOc1cc2ncc(C#N)c(Nc3ccc(OCc4ccccn4)c(Cl)c3)c2cc1NC(=O)C=CCN(C)C next?
yes (1)

Field entry: CCCCCCCCCCCC(CC1OC(=O)C1CCCCCC)OC(=O)C(CC(C)C)NC=O (centres undefined)
no (0)

Could you do the same for COc1cc(O)c2c(c1)C1OC1C[C@H](O)[C@H](O)C(=O)C=CC[C@H](C)OC2=O (some centres undefined) , please?
yes (1)

Another compound: CCC[C@@H](C=O)NC(=O)[C@H](CC(C)C)NC(=O)[C@H](CC(C)C)NC(=O)OCc1ccccc1 (Cbz-Leu-Leu-[Nva]-aldehyde)
yes (1)

---

Assay: Quantitative High-Throughput drug screen in 47 multiple myeloma cell lines against the NCATS MIPE library collection: UTMC2_PLB cell viability assay (AID 1919868); note: nearly all actives have a fitted effect of over 55% in size
Conditions: CellTiter-Glo ATP luminescence, 48 h
Records with an inconclusive call do not appear. The source made the active and inactive calls. The call rests on the fitted dose curve; in most records, active means well fitted cell-killing curve with a large enough effect; inconclusive means small, poorly fitted or top-dose-only effect, or effect the other way; inactive means no such curve, though single readings can be large or run the other way.
Choose one outcome from this list and give only that: True = active, False = inactive

State the result this test recorded for CCN(CC)CCNC(=O)c1c(C)[nH]c(C=C2C(=O)Nc3ccc(F)cc32)c1C .
True

Subsequent entry: N=c1ccn2c(n1)O[C@H]1[C@@H](O)[C@@H](CO)O[C@H]12
True

Thanks! And N#Cc1ccc(COC[C@H]2O[C@@H](n3c(NCc4ccc(Cl)c(Cl)c4)nc4c(N)ncnc43)[C@@H](O)[C@@H]2O)cc1 ?
True

Again, but for C[C@H]1O[C@H](O[C@H]2[C@H](O)[C@@H](O)[C@@H](O[C@H]3[C@H](O)[C@@H](O)C(O)O[C@H]3CO)O[C@H]2CO)[C@H](O)[C@@H](O)[C@H]1N[C@H]1C=C(CO)[C@@H](O)[C@H](O)[C@@H]1O (some centres undefined)
False
